Tested on: bed bugs
Assay: Screening of chemical lures in four-choice pitfall trap bioassays
Assay type: in vivo, Cimex lectularius L.
Conditions: four-choice: three lures and an unbaited control per arena; 50 μl lure; plastic tray arena; 50 bugs; 8 hours
ASSAY_READOUT: Percent catch of bed bugs in pitfall traps, Mean (%) ± SE (a %)
Express the result in a % but write the number alone.

Recorded Percent catch of bed bugs in pitfall traps, Mean (%) ± SE (molecule "C[C@H](O)C(=O)O" ): 25.7

Recorded Percent catch of bed bugs in pitfall traps, Mean (%) ± SE (molecule "CCCCCCCCC=O" ): 27.7

Recorded Percent catch of bed bugs in pitfall traps, Mean (%) ± SE (molecule "CC(=O)CC/C=C(/C)CCC=C(C)C" ): 13.0
